Value source: PubChem BioAssay (NCI)

- Test system: K-562 leukemia
- test: NCI tumour cell line growth inhibition, 48 h
Each item that follows carries a reported TGI.

Asked: Any idea what its TGI is? The molecule is CC1=C2C(=O)OCC23C=COC3(C)O1 (configuration not stated)
Given back: > 100 µM

Asked: Any idea what its TGI is? The molecule is O=CN1CCN(C(=O)c2cc(Cl)cc(Cl)c2)C1=S
Given back: 97.5 µM

Asked: Any idea what its TGI is? The molecule is COc1cc(/C=C2\[C@H]3c4c(c(OC)c(C)c(OC)c4OC)C[C@@H](C(=O)N2Cc2ccccc2)N3C(=O)OC(C)C)c(OC)c(C)c1OC
Given back: > 100 µM

Asked: Any idea what its TGI is? The molecule is COC1O[C@@H]2CCN3C(=O)[C@@H](OC(=O)c4ccc([N+](=O)[O-])cc4)[C@H]1C23 (some centres not stated)
Given back: > 100 µM

Asked: Any idea what its TGI is? The molecule is OC(c1cccnc1)C(F)(F)c1nc2ccccc2o1 (configuration not stated)
Given back: > 100 µM
